Listing of entries alongside the reported τ.
EXPERIMENTAL TARGET: UniProt P06730
Sequence (P06730 32-217): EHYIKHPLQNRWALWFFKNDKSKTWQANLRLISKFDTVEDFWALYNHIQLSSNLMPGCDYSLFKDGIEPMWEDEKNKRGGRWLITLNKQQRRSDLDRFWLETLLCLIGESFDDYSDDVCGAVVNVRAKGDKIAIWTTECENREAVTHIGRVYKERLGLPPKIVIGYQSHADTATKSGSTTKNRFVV
METHOD: Binding affinities to eIF4E using surface plasmon resonance (SPR)
TEST PARAMETERS: residence time as listed in Table 13
Your answer is read as s, so omit the unit and give the number.

C[n+]1cn([C@@H]2O[C@H](COP(=O)([O-])OP(=O)([O-])OP(=O)(O)OC[C@H]3O[C@@H](n4c[n+](C)c5c(=O)[nH]c(N)nc54)[C@H](O)[C@@H]3O)[C@@H](O)[C@H]2O)c2nc(N)[nH]c(=O)c21 [Compound 005-10]    3.8

Return τ for the following compound: CO[C@@H]1[C@H](O)[C@@H](COP(=O)(O)OP(=O)(O)OP(=O)(O)OC[C@H]2O[C@@H]([n+]3cn(C)c4c(=O)[nH]c(N)nc43)[C@H](O)[C@@H]2O)O[C@H]1n1cnc2c(=O)[nH]c(N)nc21 [Cap1, m7GpppG(2′-Om), reference compound]
1.3
